Hey, just so you know, these numbers are from BigSolDB 2.1.

measurement.context: in n-propanol, 303.15 K
measured.attribute: solubility (mole fraction)
// keep it numeric: no unit symbol after the value

Field request: solubility (mole fraction) | item: Cc1ccc(S(=O)[O-])cc1.[Na+]
0.00364

====

measurement.context: in isopropanol, 318.15 K
measured.attribute: solubility (mole fraction)
// keep it numeric: no unit symbol after the value

Field request: solubility (mole fraction) | item: Cc1ccc(S(=O)[O-])cc1.[Na+]
0.00113

====

measurement.context: in isopropanol, 308.15 K
measured.attribute: solubility (mole fraction)
// keep it numeric: no unit symbol after the value

Field request: solubility (mole fraction) | item: Cc1ccc(S(=O)[O-])cc1.[Na+]
0.00105
